- Tested on: c-myc in 22RV-1 cells
- assay procedure: Human c-myc ELISA assay
- Assay type: cell-based
- condition description: Homo sapiens, 22Rv1, 18 h, read-out: Degradation of BRD4: Maximum inhibition (%) c-Myc ELISA in 22RV1 cells
Catalogue of compounds with associated Emax
The figure you give is taken to be in %; do not add the unit.

# compound structure, Emax (%)
records = [
    ("Cc1sc2c(c1C)C(c1ccc(Cl)cc1)=N[C@@H](CC(=O)N[C@H]1C[C@@H](Oc3ccc(OCC(=O)N[C@H](C(=O)N4C[C@H](O)C[C@H]4C(=O)N[C@@H](C)c4ccc(-n5ccnc5C)cc4)C(C)(C)C)cn3)C1)c1nnc(C)n1-2", 65.7),
    ("Cc1ncsc1-c1ccc(CNC(=O)[C@@H]2C[C@@H](O)CN2C(=O)[C@@H](NC(=O)COCCCOCCOc2cc(NC(=O)C[C@@H]3N=C(c4ccc(Cl)cc4)c4c(sc(C)c4C)-n4c(C)nnc43)ccc2F)C(C)(C)C)cc1", 99),
    ("Cc1ncsc1-c1ccc([C@H](C)NC(=O)[C@@H]2C[C@@H](O)CN2C(=O)[C@@H](NC(=O)Cc2ccc(-c3cn([C@@H](C)CNC(=O)C[C@@H]4N=C(c5ccc(Cl)cc5)c5c(sc(C)c5C)-n5c(C)nnc54)cn3)cc2)C(C)(C)C)cc1", 98.5),
    ("Cc1ncsc1-c1ccc(CNC(=O)[C@@H]2C[C@@H](O)CN2C(=O)[C@@H](NC(=O)COCc2ccc(Oc3cccc(NC(=O)C[C@@H]4N=C(c5ccc(Cl)cc5)c5c(sc(C)c5C)-n5c(C)nnc54)c3)cc2)C(C)(C)C)cc1", 99.5),
    ("Cc1ncsc1-c1ccc(CNC(=O)[C@@H]2C[C@@H](O)CN2C(=O)[C@@H](c2cc(OCCO[C@H]3C[C@@H](NC(=O)C[C@@H]4N=C(c5ccc(Cl)cc5)c5c(sc(C)c5C)-n5c(C)nnc54)C3)no2)C(C)C)cc1", 89.9),
]

I have this compound here, Cc1ncsc1-c1ccc([C@H](C)NC(=O)[C@@H]2C[C@@H](O)CN2C(=O)[C@@H](C(C)C)n2cc(-c3cccc(O[C@H]4C[C@H](NC(=O)C[C@@H]5N=C(c6ccc(Cl)cc6)c6c(sc(C)c6C)-n6c(C)nnc65)C4)c3)cn2)cc1 , and I need its recorded Emax.
95.5

I have this compound here, Cc1ncsc1-c1ccc([C@H](C)NC(=O)[C@@H]2C[C@@H](O)CN2C(=O)[C@@H](NC(=O)CN2CCC(C(=O)N3CCN(C(=O)C[C@@H]4N=C(c5ccc(Cl)cc5)c5c(sc(C)c5C)-n5c(C)nnc54)CC3)CC2)C(C)(C)C)cc1 , and I need its recorded Emax.
97

###

Catalogue of compounds with associated Emax
- System: c-myc in 22RV-1 cells
- assay procedure: Human c-myc ELISA assay
- Type: cell-based
- condition description: Homo sapiens, 22Rv1, 18 h, read-out: Degradation of BRD4: Maximum inhibition (%) c-Myc ELISA in 22RV1 cells
The figure you give is taken to be in %; do not add the unit.

# compound structure, Emax, %
rows = [
    ("Cc1ncsc1-c1ccc([C@H](C)NC(=O)[C@@H]2C[C@@H](O)CN2C(=O)[C@@H](NC(=O)/C=C/c2cc(O[C@@H](C)CNC(=O)C[C@@H]3N=C(c4ccc(Cl)cc4)c4c(sc(C)c4C)-n4c(C)nnc43)ccc2F)C(C)(C)C)cc1", 94.5),
]

Recorded Emax for Cc1ncsc1-c1ccc(CNC(=O)[C@@H]2C[C@@H](O)CN2C(=O)[C@@H](NC(=O)CCCCCCCCNC(=O)C[C@@H]2N=C(c3ccc(Cl)cc3)c3c(sc(C)c3C)-n3c(C)nnc32)C(C)(C)C)cc1 with c-myc in 22RV-1 cells, please?
95.4

Recorded Emax for Cc1sc2c(c1C)C(c1ccc(Cl)cc1)=N[C@@H](CC(=O)N[C@H]1C[C@@H](Oc3cc(-c4cnn([C@@H](C(=O)N5C[C@H](O)C[C@H]5C(=O)N[C@@H](C)c5ccc(-c6nccn6C)cc5)C(C)C)c4)ccn3)C1)c1nnc(C)n1-2 with c-myc in 22RV-1 cells, please?
10

Recorded Emax for Cc1ncsc1-c1ccc(CNC(=O)[C@@H]2C[C@@H](O)CN2C(=O)[C@@H](NC(=O)COCCN2CCN(c3ccc([C@H](C)NC(=O)C[C@@H]4N=C(c5ccc(Cl)cc5)c5c(sc(C)c5C)-n5c(C)nnc54)cc3)CC2)C(C)(C)C)cc1 with c-myc in 22RV-1 cells, please?
88
